Origin of measurements: ChEMBL document CHEMBL3988442

system: Leishmania donovani; assay: Leishmania intramacrophage assay; assay type: functional, organism-based; parameters: scale not given: in the data most compounds retested in dose-response had high values; conditions: 30.3 µM; […]
Screen size: about 69,000 compounds; about 1,000 (1.4%) showed an effect of 50% or more. For the sample, strong results were picked, then their nearest neighbours and some compounds at random.
Categories are assigned from the measured Percent Effect using these intervals: b0: < 10%; b1: ≥ 10% and < 40%; b2: ≥ 40%

# count of solved cases: 6
{"columns": ["Compound", "Label Class"],
 "data": [
  ["Cc1nn(C)c(C)c1C(=O)NCc1cc(N(C)C)nc2ccccc12", "b2"],
  ["CC(C)N1CCN(c2ccc3ccc(C(=O)NC4CCCC4)cn23)CC1.O=C(O)C(F)(F)F", "b1"],
  ["CCOCc1cnc2n1CCN(C(=O)Cc1cccs1)C2C (stereo not drawn)", "b2"],
  ["CCCc1nc(CN(CC)C(=O)c2ccc3ncsc3c2)no1", "b0"],
  ["CCCc1nnc(SCc2cc(=O)n3c4c(sc3n2)CCCC4)[nH]1", "b0"],
  ["CCn1nc(C)cc1C(=O)NCc1cc(N(C)C)nc2ccccc12", "b1"]
]}

Ask | Category of `Clc1ccc(CN2CCN(Cn3nccc3-c3cccnc3)CC2)s1` :
Reply | b2

Ask | Another compound to look at: `c1cncc(-c2ccnn2CN2CCC3(CC2)OCCO3)c1`
Reply | b1

Ask | Can you check `CCc1nnc(SCc2cc(=O)n3c4c(sc3n2)CCCC4)[nH]1` next?
Reply | b2
